- study.system: Beta-secretase 1 (Homo sapiens)
- protocol.notes: Inhibition of human recombinant BACE1 at 2 uM by FRET assay
# maps each entry to its inhibition
Provide only the numeric value, understood in %.

The examples below pair each entry with its known result.
{"chemical.string": "COc1cccc(CC(C)(C)NC(=O)[C@H](CC2CCCCC2)NC(=O)[C@@H](NC(=O)[C@@H](N)CNC(=O)c2[nH]c(=O)[nH]c(=O)c2F)C(C)C)c1", "study.system": "Beta-secretase 1 (Homo sapiens)", "inhibition / %": 77}
{"chemical.string": "CC(C)[C@H](NC(=O)[C@@H](N)CNC(=O)c1[nH]c(=O)[nH]c(=O)c1F)C(=O)N[C@@H](CC1CCCCC1)C(=O)NC(C)(C)Cc1ccc(Br)cc1", "study.system": "Beta-secretase 1 (Homo sapiens)", "inhibition / %": 92}
{"chemical.string": "CC(C)C[C@H](NC(=O)[C@@H](NC(=O)[C@@H](N)CNC(=O)c1cc(O)ccc1O)C(C)C)C(=O)NC(C)(C)Cc1ccc(I)cc1I", "study.system": "Beta-secretase 1 (Homo sapiens)", "inhibition / %": 78}
{"chemical.string": "CC(C)C[C@H](NC(=O)[C@@H](NC(=O)[C@@H](N)CNC(=O)c1[nH]c(=O)[nH]c(=O)c1F)C(C)C)C(=O)NC(C)(C)CC1CCCCC1", "study.system": "Beta-secretase 1 (Homo sapiens)", "inhibition / %": 91}
{"chemical.string": "CC(C)C[C@H](NC(=O)[C@@H](NC(=O)[C@@H](N)CNC(=O)c1[nH]c(=O)[nH]c(=O)c1F)C(C)C)C(=O)N1CCCCCCC1", "study.system": "Beta-secretase 1 (Homo sapiens)", "inhibition / %": 85}
{"chemical.string": "CC(C)C[C@H](NC(=O)[C@@H](NC(=O)[C@@H](N)CNC(=O)c1cc(O)ccc1O)C(C)C)C(=O)NC(C)(C)Cc1cc(F)cc(F)c1", "study.system": "Beta-secretase 1 (Homo sapiens)", "inhibition / %": 59}

IN: GET /values?readout=inhibition&item= `Cc1ccccc1CC(C)(C)NC(=O)[C@H](CC1CCCCC1)NC(=O)[C@@H](NC(=O)[C@@H](N)CNC(=O)c1[nH]c(=O)[nH]c(=O)c1F)C(C)C`
OUT: 84

IN: Please report the recorded inhibition for `CC(C)C[C@H](NC(=O)[C@@H](NC(=O)[C@@H](N)CNC(=O)c1[nH]c(=O)[nH]c(=O)c1F)C(C)C)C(=O)NC(C)(C)Cc1cc(F)cc(F)c1` .
OUT: 86

IN: Which measured inhibition value corresponds to `CC(C)[C@H](NC(=O)[C@@H](N)CNC(=O)c1[nH]c(=O)[nH]c(=O)c1F)C(=O)N[C@@H](CC1CCCCC1)C(=O)NC(C)(C)Cc1ccc(I)cc1I` ?
OUT: 96

IN: For the compound shown here, `COc1ccc(CC(C)(C)NC(=O)[C@H](CC2CCCCC2)NC(=O)[C@@H](NC(=O)[C@@H](N)CNC(=O)c2[nH]c(=O)[nH]c(=O)c2F)C(C)C)cc1` , give the reported inhibition.
OUT: 85

IN: So what's the measured inhibition for this one? `Cc1ccc(CC(C)(C)NC(=O)[C@H](CC(C)C)NC(=O)[C@@H](NC(=O)[C@@H](N)CNC(=O)c2[nH]c(=O)[nH]c(=O)c2F)C(C)C)cc1`
OUT: 86
